System: H. influenzae - ATCC 49247
Assay: MIC, broth microdilution (NCCLS M7-A5)
Assay type: cell-based
Settings: Table 4 (MIC); averages of 2 experiments, * single experiment; both values given when differing >2 fold
Readout: H. inf. 49247

>>> result("O=C(O)c1[nH]c(C(=O)O)c(-c2c[nH]c3ccc(Cl)cc23)c1-c1c[nH]c2ccc(Cl)cc12")
">16"
>>> result("O=C(O)c1[nH]cc(-c2c[nH]c3cc(Cl)c(Cl)cc23)c1-c1c[nH]c2ccc(Cl)cc12")
8
>>> result("COC(=O)c1[nH]c(C(=O)OC)c(-c2c[nH]c3ccc(F)cc23)c1-c1c[nH]c2ccccc12")
">32*"
>>> result("COC(=O)c1[nH]cc(-c2c[nH]c3cc(Cl)c(Cl)cc23)c1-c1c[nH]c2ncccc12")
">32*"
>>> result("COC(=O)c1[nH]cc(-c2c[nH]c3cc(F)c(Cl)cc23)c1-c1c[nH]c2ccc(Cl)cc12")
">32*"
>>> result("COC(=O)c1[nH]c(C(=O)OC)c(-c2c[nH]c3cc(F)ccc23)c1-c1c[nH]c2ccccc12")
"8*"
>>> result("COC(=O)c1[nH]c(C(=O)OC)c(-c2c[nH]c3ccccc23)c1-c1c[nH]c2ccccc12")
">32"

# input for lookup
Input `COC(=O)c1[nH]c(C(=O)OC)c(-c2c[nH]c3ccc(F)cc23)c1-c1c[nH]c2ccc(F)cc12` . Output H. inf. 49247: >32*

###

Tested on: S. aureus - MSSA (29213)
Test: MIC, broth microdilution (NCCLS M7-A5)
Format: cell-based
Settings: Table 4; averages of 2 experiments, * single experiment; both values given when differing >2 fold; in µg/mL
Readout: MSSA 29213 MIC

>>> result("COC(=O)c1[nH]cc(-c2c[nH]c3cc(F)c(Cl)cc23)c1-c1c[nH]c2ccc(Cl)cc12")
"1*"
>>> result("COC(=O)c1[nH]c(C(=O)OC)c(-c2c[nH]c3ncccc23)c1-c1c[nH]c2ccc(Cl)cc12")
"3*"

# input for lookup
Input `COC(=O)c1[nH]c(C(=O)OC)c(-c2c[nH]c3cc(F)ccc23)c1-c1c[nH]c2ccccc12` . Output MSSA 29213 MIC: 4*

###

Test system: E. faecium - Van^r (VRE 700221)
Assay: MIC, broth microdilution (NCCLS M7-A5)
Format: cell-based
Details: Table 4; averages of 2 experiments, * single experiment; both values given when differing >2 fold; in µg/mL
Below, each entry is listed alongside its reported VRE 700221 MIC.

These recorded examples may help you get a feel for the data.
>>> result("COC(=O)c1[nH]c(C(=O)OC)c(-c2c[nH]c3ccc(Cl)cc23)c1-c1c[nH]c2ccc(F)cc12")
">32"
>>> result("COC(=O)c1[nH]c(C(=O)OC)c(-c2c[nH]c3ccc(F)cc23)c1-c1c[nH]c2ccc(F)cc12")
">32*"
>>> result("COC(=O)c1[nH]c(C(=O)OC)c(-c2c[nH]c3ccccc23)c1-c1c[nH]c2ccccc12")
">32"

VRE 700221 MIC of `O=C(O)c1[nH]cc(-c2c[nH]c3cc(Cl)c(Cl)cc23)c1-c1c[nH]c2ccc(Cl)cc12` , assay on E. faecium - Van^r (VRE 700221), is 8

VRE 700221 MIC of `COC(=O)c1[nH]c(C(=O)OC)c(-c2c[nH]c3ccc(F)cc23)c1-c1c[nH]c2ccccc12` , assay on E. faecium - Van^r (VRE 700221), is >32*

VRE 700221 MIC of `COC(=O)c1[nH]c(C(=O)OC)c(-c2c[nH]c3ncccc23)c1-c1c[nH]c2ccc(Cl)cc12` , assay on E. faecium - Van^r (VRE 700221), is 32*

VRE 700221 MIC of `COC(=O)c1[nH]cc(-c2c[nH]c3cc(F)c(Cl)cc23)c1-c1c[nH]c2ccc(Cl)cc12` , assay on E. faecium - Van^r (VRE 700221), is 4*
